Entries annotated with measured remaining at 1 h, 50 ug/ml
experiment.summary: Stability of compound in PBS at pH 6.5 assessed as remaining parent compound at 50 ug/ml after 1 hr by HPLC analysis
Type: physicochemical
condition.notes: PBS at pH 6.5, pH 6.5, at 50 µg/mL, read-out: Stabilty
Give the value in % but do not write % after it.

// known answers, use as guide
{"compound": "Cc1oc(=O)oc1COC(=O)[C@H]1[C@@H]2C[C@H](F)[C@@](N)(C(=O)O)[C@@H]21", "unit.of.measurement": "%", "test.result": 98}
{"compound": "CC(OC(=O)OC12CC3CC(CC(C3)C1)C2)OC(=O)[C@H]1[C@@H]2C[C@H](F)[C@@](N)(C(=O)O)[C@@H]21 (stereo partly drawn)", "unit.of.measurement": "%", "test.result": 97}

Now for another entry.
// sample CC(OC(=O)OC1CCCCC1)OC(=O)[C@H]1[C@@H]2C[C@H](F)[C@@](N)(C(=O)O)[C@@H]21 (stereo partly drawn) , its remaining at 1 h, 50 ug/ml was 97

---

experiment.summary: Lipophilicity, logD of compound in n-octanol and phosphate buffered saline at 2 mg after 1.5 hrs by HPLC based shake flask method
Assay type: physicochemical
condition.notes: n-octanol/phosphate buffered saline
observable: logD at 1.5 h

// known answers, use as guide
{"compound": "CC(OC(=O)C(C)C)OC(=O)[C@H]1[C@@H]2C[C@H](F)[C@@](N)(C(=O)O)[C@@H]21 (some centres undefined)", "test.result": "< -0.65"}
{"compound": "CC(C)[C@@H]1CC[C@@H](C)C[C@H]1OC(=O)O[C@@H](C)OC(=O)[C@H]1[C@@H]2C[C@H](F)[C@@](N)(C(=O)O)[C@@H]21", "test.result": "> 2.04"}
{"compound": "CC(C)[C@@H]1CC[C@@H](C)C[C@H]1OC(=O)O[C@H](C)OC(=O)[C@H]1[C@@H]2C[C@H](F)[C@@](N)(C(=O)O)[C@@H]21", "test.result": "> 1.78"}

Now for another entry.
// sample CC(C)OC(=O)OC(C)OC(=O)[C@H]1[C@@H]2C[C@H](F)[C@@](N)(C(=O)O)[C@@H]21 (some centres undefined) , its logD at 1.5 h was 0.06

Where these numbers come from: ChEMBL document CHEMBL4706518
